Numbers sourced from PubChem BioAssay.

- measurement-protocol: cell viability in Huh7 cells, primary screen, cytotoxicity control for HCV replication inhibitor project, CellTiter-Glo luminescence, basal, 48 h (AID 1143);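 further: Huh7 hepatoma cells carrying a hepatitis C replication reporter with no stimulus; test concentration not given here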
- condition-context: Huh7 HCV replicon, higher = more signal, called active from +8 up or from −8 down
Listed here: items and their measured z-score.
Respond numerically, and do not add a unit to the figure.

{"compound": "COc1cc2c(cc1OC)CN(C(=O)[C@H]1[C@@H]3C(=O)O[C@@H](c4ccccc4)[C@@H](c4ccccc4)N3[C@@H](c3ccc(O)cc3)[C@]13C(=O)Nc1ccc(C#CCNC(N)=O)cc13)CC2", "z-score": -0.431}
{"compound": "C#CCN(CC=C(C)C)[C@H](CO)c1ccccc1", "z-score": -4.16}
{"compound": "COC(=O)C(CC#Cc1ccc2c(c1)[C@]1(C(=O)N2)[C@H](c2ccc(O)cc2)N2[C@H](c3ccccc3)[C@H](c3ccccc3)OC(=O)[C@H]2[C@@H]1C(=O)Nc1nc2ccccc2s1)C(=O)OC", "z-score": -2.01}
{"compound": "COC(=O)[C@@]1(Cc2ccccc2)[C@H]2c3cc(C(=O)N(C)C)n(CCSCCO)c3C[C@H]2CN1C(=O)c1ccccc1", "z-score": -0.432}
{"compound": "Cc1ccc(C(C)CC(O)C2C=CC3C(=O)N(C)C(=O)C3N2NC(=O)OC(C)(C)C)o1 (configuration not stated)", "z-score": 0.963}

// field: z-score; key: C#CCNC(=O)[C@H](Cc1ccccc1)NC(=O)CCC(=O)O ; value = 0.0187

// field: z-score; key: COc1ccc([Si](C)(C)[C@H]2[C@H](CC(=O)N3CCC[C@H]3CO)O[C@@]3(C(=O)N(Cc4cccc(N5C(=O)c6cccc7cccc5c67)c4)c4ccccc43)[C@@H]2C)cc1 ; value = -3.59

* * *

- Test system: Neuregulin-1 EGF-like domain
- measurement-protocol: binders of neuregulin-1 EGF-like domain, primary screen, biochemical, small-molecule microarray, 635 nm fluorescence (AID 1081);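 further: binding of the protein to compounds printed on small-molecule microarray slides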
- condition-context: small-molecule microarray binding, higher = more signal
readout-name: composite z-score
Respond numerically, and do not add a unit to the figure.

{"molecule": "COc1ccc([Si](C)(C)[C@H]2[C@H](CC(=O)N3CCC[C@H]3CO)O[C@@]3(C(=O)N(Cc4cccc(N5C(=O)c6cccc7cccc5c67)c4)c4ccccc43)[C@@H]2C)cc1", "composite z-score": 0.981}
{"molecule": "COC(=O)[C@@]1(Cc2ccccc2)[C@H]2c3cc(C(=O)N4CCCC4)n(Cc4cccc5ccccc45)c3C[C@H]2CN1C(=O)c1ccccc1", "composite z-score": 1.21}
{"molecule": "CC1CC/C=C\\[C@H]2OC34C=CCN(c5ccc(Cl)cc5)C(=O)[C@H]3N(CCO)C(=O)[C@]4(C)C2C(=O)O1 (some centres undefined)", "composite z-score": 0.842}
{"molecule": "COC(=O)[C@@]1(Cc2ccccc2)[C@H]2c3cc(C(=O)N4CCCC4)n(Cc4nc5ccccc5[nH]4)c3C[C@H]2CN1C(=O)c1ccccc1", "composite z-score": 0.807}

// field: composite z-score; key: CN1C(=O)C2C=CC(C(O)c3cccs3)N(Nc3ccccc3)C2C1=O (centres undefined) ; value = 1.4

// field: composite z-score; key: C#CCN(CC=C(C)C)[C@H](CO)c1ccccc1 ; value = -0.187
